Every entry's value here was drawn from ChEMBL document CHEMBL4041486.

# Tested on: HCT-116
# assay overview: Cell cycle arrest in human HCT116 cells assessed as accumulation at G1 phase at antiproliferative IC50 after 24 hrs by propidium iodide staining based flow cytometry (reference value: 31%)
# Type: functional
Please provide measured Activity for the entries that follow.
Please respond with the number in % and leave the unit unwritten.

Query :: Would you mind telling me what Activity value was observed for CC[C@H]1CN(C)[C@H]2Cc3c([nH]c4ccccc34)[C@H](c3cc4c5c([nH]c4cc3OC)C3(C(=O)OC)CC4C[C@H](CC)[C@@H]3N(CC5)C4=O)C[C@@H]1C2C(=O)OC (stereo not given in full) ?
Result :: 34.4

Query :: Would you mind telling me what Activity value was observed for O=c1[nH]cc(F)c(=O)[nH]1 [FLUOROURACIL] ?
Result :: 21.3

Query :: Would you mind telling me what Activity value was observed for CC[C@H]1CN(C)[C@H]2Cc3c([nH]c4ccccc34)[C@H](c3cc4c5c([nH]c4cc3OC)C3(C(=O)OC)C[C@@H]4C[C@H](CC)[C@@H]3N(CC5)C4)C[C@@H]1C2C(=O)OC (stereo not given in full) ?
Result :: 2.39

###

# System: HCT-116
# assay overview: Cytotoxicity against human HCT116 cells assessed as cell death at antiproliferative IC50 after 72 hrs by LDH release assay relative to control
# Type: functional
experimental endpoint: fold change (FC)

Query :: Would you mind telling me what fold change (FC) value was observed for CC[C@H]1CN(C)[C@H]2Cc3c([nH]c4ccccc34)[C@H](c3cc4c5c([nH]c4cc3OC)C3(C(=O)OC)CC4C[C@H](CC)[C@@H]3N(CC5)C4=O)C[C@@H]1C2C(=O)OC (stereo not given in full) ?
Result :: 2.5 - 2.8

Query :: Would you mind telling me what fold change (FC) value was observed for CC[C@H]1CN(C)[C@H]2Cc3c([nH]c4ccccc34)[C@H](c3c(OC)ccc4c5c([nH]c34)C3(C(=O)OC)CC4C[C@H](CC)[C@@H]3N(CC5)C4=O)C[C@@H]1C2C(=O)OC (stereo not given in full) ?
Result :: 2.5 - 2.8

Query :: Would you mind telling me what fold change (FC) value was observed for CC[C@H]1CN(C)[C@H]2Cc3c([nH]c4ccccc34)[C@H](c3cc4c5c([nH]c4cc3OC)C3(C(=O)OC)C[C@@H]4C[C@H](CC)[C@@H]3N(CC5)C4)C[C@@H]1C2C(=O)OC (stereo not given in full) ?
Result :: 2.5 - 2.8

Query :: Would you mind telling me what fold change (FC) value was observed for O=c1[nH]cc(F)c(=O)[nH]1 [FLUOROURACIL] ?
Result :: 2.2 - 2.5

Query :: Would you mind telling me what fold change (FC) value was observed for CC[C@H]1CN(C)[C@H]2Cc3c([nH]c4ccccc34)[C@H](c3c(OC)ccc4c5c([nH]c34)C3(C(=O)OC)C[C@@H]4C[C@H]([C@H](C)O)[C@@H]3N(CC5)C4)C[C@@H]1C2C(=O)OC (stereo not given in full) ?
Result :: 2.5 - 2.8

###

Please provide measured IC50 for the entries that follow.
# Tested on: HCT-116
# assay overview: Growth inhibition of human HCT116 cells after 72 hrs by MTS assay
# Assay type: functional, cell-based
# experimental conditions: HCT-116, 72 h

Query :: Would you mind telling me what IC50 value was observed for CC[C@@H]1CN(C)[C@H]2Cc3c([nH]c4ccccc34)[C@H](c3c(OC)ccc4c5c([nH]c34)C3(C(=O)OC)C[C@@H]4C[C@H](CC)[C@@H]3N(CC5)C4)C[C@@H]1C2C(=O)OC (stereo partly specified) ?
Result :: > 10 µM

Query :: Would you mind telling me what IC50 value was observed for CC[C@H]1CN(C)[C@H]2Cc3c([nH]c4ccccc34)[C@H](c3cc4c5c([nH]c4cc3OC)C3(C(=O)OC)C[C@@H]4C[C@H](CC)[C@@H]3N(CC5)C4)C[C@@H]1C2C(=O)OC (stereo partly specified) ?
Result :: 8.5 µM

Query :: Would you mind telling me what IC50 value was observed for CC[C@H]1CN(C)[C@H]2Cc3c([nH]c4ccccc34)[C@H](c3c(OC)ccc4c5c([nH]c34)C3(C(=O)OC)C[C@@H]4C[C@H]([C@H](C)O)[C@@H]3N(CC5)C4)C[C@@H]1C2C(=O)OC (stereo partly specified) ?
Result :: 8.4 µM

Query :: Would you mind telling me what IC50 value was observed for CC[C@H]1CN(C)[C@H]2Cc3c([nH]c4ccccc34)[C@H](c3cc4c5c([nH]c4cc3OC)C3(C(=O)OC)CC4C[C@H](CC)[C@@H]3N(CC5)C4=O)C[C@@H]1C2C(=O)OC (stereo partly specified) ?
Result :: 8.8 µM

Query :: Would you mind telling me what IC50 value was observed for CC[C@H]1CN(C)[C@H]2Cc3c([nH]c4ccccc34)[C@H](c3c(OC)ccc4c5c([nH]c34)C3(C(=O)OC)CC4C[C@H](CC)[C@@H]3N(CC5)C4=O)C[C@@H]1C2C(=O)OC (stereo partly specified) ?
Result :: > 10 µM

Query :: Would you mind telling me what IC50 value was observed for O=c1[nH]cc(F)c(=O)[nH]1 ?
Result :: 2.5 µM
